target: T1, human MMP-14 (human, UniProt P50281 112-541, limits assumed); assay: enzymatic inhibition assay, 2 nM MMP-14, 14 uM substrate Mca-Pro-Leu-Ala-Cys(Mob)-Trp-Ala-Arg-Dap(Dnp)-NH2; rate against [IgG] 0-50 nM
T1 construct: Soluble MMP-14 used in selection, ELISA (biotinylated) and enzymatic assays; also called hMMP-14; bhMMP-14 (biotinylated human MMP-14)
pKi: −log10 of the molar value.
measured.quantity: pKi

>>> value("M0037-C09 IgG (antibody, V domains shown, IgG of the Fab; also called M037-C09) VH: EVQLLESGGGLVQPGGSLRLSCAASGFTFSHYEMFWVRQAPGKGLEWVSSISPSGGQTHYADSVKGRFTISRDNSKNTLYLQMNSLRAEDTAVYYCATDRTYYDFWSGYGPLWYWGQGTLVTVSS VL: DIQMTQSPLSLPVTLGESASVSCRSSQSLLHENGHNYLDWYLQKPGQSPQLLIYLGSNRASGVPDRFSGSGSGTDFTLKISRVEAEDVGVYYCMQSLKTPPTFGPGTKVEIK")
8.20
>>> value("M0033-H07 IgG (antibody, V domains shown, IgG of the Fab) VH: EVQLLESGGGLVQPGGSLRLSCAASGFTFSVYGMVWVRQAPGKGLEWVSVISSSGGSTWYADSVKGRFTISRDNSKNTLYLQMNSLRAEDTALYYCARPFSRRYGVFDYWGQGTLVTVSS VL: DIQMTQSPSSLSASVGDRVTITCRASQGIRNFLAWYQQKPGKVPKLLVFGASALQSGVPSRFSGSGSGTDFTLTISGLQPEDVATYYCQKYNGVPLTFGGGTKVEIK")
8.57
>>> value("M0038-F01 IgG (antibody, V domains shown, IgG of the Fab) VH: EVQLLESGGGLVQPGGSLRLSCAASGFTFSLYSMNWVRQAPGKGLEWVSSIYSSGGSTLYADSVKGRFTISRDNSKNTLYLQMNSLRAEDTAVYYCARGRAFDIWGQGTMVTVSS VL: DIQMTQSPSSLSAFVGDKVTITCRASQSVGTYLNWYQQKAGKAPELLIYATSNLRSGVPSRFSGSGSGTDFTLTINTLQPEDFATYYCQQSYSIPRFTFGPGTKVDIK")
9.05
>>> value("M0037-D01 IgG (antibody, V domains shown, IgG of the Fab) VH: EVQLLESGGGLVQPGGSLRLSCAASGFTFSMYMMIWVRQAPGKGLEWVSSIYPSGGNTMYADSVKGRFTISRDNSKNTLYLQMNSLRAEDTAVYYCATGVLRYFDWDAGSGMDVWGQGTTVTVSS VL: DIQMTQSPSSLSASVGDRVTITCRASQGIRNDLGWYQQKPGKAPKRLIYVASSLQSGVPSRFSGSGSGTEFTLTISSLQPEDFATYYCLQHNSYPWTFGQGTKVEIK")
8.77
